I'd appreciate it if you could supply CO2 permeability values for the items below.
Answer with a number only, understood to be in Barrer.

*Q* Recorded CO2 permeability for *CC(*)OC(=O)c1cccc(C)c1 (repeat unit) , please?
*A* 2.13

*Q* // next record *c1ccc(C)c(-c2cc(C)c(-c3cc(*)ccc3C)cc2C)c1 (repeat unit)
*A* 62

*Q* Lookup *Oc1ccc(C(C)(C)c2ccc(OC(=O)c3cccc(C(=O)Oc4cc(-c5cc(*)cc6ccccc56)c5ccccc5c4)c3)cc2)cc1 (repeat unit)
*A* 4

*Q* Another: *c1c(C)cc(Cc2cc(C)c(N3C(=O)c4ccc(-c5ccc6c(c5)C(=O)N(*)C6=O)cc4C3=O)c(C)c2)cc1C (repeat unit)
*A* 22.4

*Q* Another: *Nc1ccc(C(c2ccc(NC(=O)c3cc(C(*)=O)cc(-c4ccccc4)c3)cc2)(C(F)(F)F)C(F)(F)F)cc1 (repeat unit)
*A* 21

*Q* Same for *OC(=O)Oc1c(Cl)cc(C(C)(C)c2cc(Cl)c(*)c(Cl)c2)cc1Cl (repeat unit)
*A* 6.68

*Q* // query: *CC(*)(C)C#N (repeat unit)
*A* 0.0032

*Q* Next: *CC(*)OC(=O)c1ccccc1C (repeat unit)
*A* 2.23

*Q* Another: *c1c(C)c(C)c(N2C(=O)c3ccc(Oc4c(C)ccc(C)c4Oc4ccc5c(c4)C(=O)N(*)C5=O)cc3C2=O)c(C)c1C (repeat unit)
*A* 63

*Q* For *CC(C)C(=O)OCCOC(=O)C(C)C* (repeat unit) then?
*A* 95

*Q* Can you handle *c1c(C)c(C)c(N2C(=O)c3ccc(Oc4c(C)cccc4Oc4ccc5c(c4)C(=O)N(*)C5=O)cc3C2=O)c(C)c1C (repeat unit) next?
*A* 27

*Q* Also check *Oc1cc2c(cc1O*)C1(c3cc(C(C)(C)C)ccc3-2)c2cc(C(C)(C)C)ccc2-c2cc3c(cc21)Oc1c(C#N)c(*)c(*)c(C#N)c1O3 (repeat unit)
*A* 13200

*Q* Next: *Oc1ccc(C2(c3ccc(Oc4ccc(S(=O)(=O)c5ccc(*)cc5)cc4)c(C)c3)OC(=O)c3ccccc32)cc1C (repeat unit)
*A* 3.12

*Q* How about *c1ccc(-c2nnc(-c3ccc(N4C(=O)c5ccc(C(c6ccc7c(c6)C(=O)N(*)C7=O)(C(F)(F)F)C(F)(F)F)cc5C4=O)cc3)o2)cc1 (repeat unit) ?
*A* 15.6

*Q* Now give it for *C(=C(*)c1ccc2c(c1)C(C)(C)CC2(C)C)c1ccc(F)cc1 (repeat unit) too.
*A* 47000

*Q* Note, next up: *Oc1cc2c(cc1O*)C1(CC2(C)C)CC(C)(C)c2cc3oc4cc5c(=O)n(-c6c(C)c(C)c(N7C(=O)c8cc(*)c(*)cc8C7=O)c(C)c6C)c(=O)c5cc4oc3cc21 (repeat unit)
*A* 520

---

Give measured CH4 permeability for each item. Keep answers brief.
Provide only the numeric value, understood in Barrer.

*Q* Form field: reported CH4 permeability of *c1ccc(Oc2ccc(C(c3ccc(Oc4ccc(N5C(=O)c6ccc(-c7ccc8c(c7)C(=O)N(*)C8=O)cc6C5=O)cc4C(F)(F)F)cc3)(C(F)(F)F)C(F)(F)F)cc2)c(C(F)(F)F)c1 (repeat unit)
*A* 0.279

*Q* Same again, this time with *c1ccc(C(c2ccc(-c3nc4cc(C(c5ccc6oc(*)nc6c5)(C(F)(F)F)C(F)(F)F)ccc4o3)cc2)(C(F)(F)F)C(F)(F)F)cc1 (repeat unit)
*A* 176

*Q* Then *c1c(C)cc(-c2cc(C)c(N3C(=O)c4cc5c(cc4C3=O)C3(C(C)C)c4ccccc4C5(C(C)C)c4cc5c(cc43)C(=O)N(*)C5=O)c3ccccc23)c2ccccc12 (repeat unit) ?
*A* 190

*Q* Now the compound *c1ccc(Cc2ccc(N3C(=O)c4ccc(-c5ccc6c(c5)C(=O)N(*)C6=O)cc4C3=O)c(Cl)c2)cc1Cl (repeat unit)
*A* 0.0164

*Q* Further, for *CC(*)(C)C(=O)OCCOCCOCC (repeat unit) ?
*A* 11.4

*Q* Next record, please: *c1ccc(Oc2ccc(-c3cccc(-c4ccc(Oc5ccc(N6C(=O)c7ccc(C(c8ccc9c(c8)C(=O)N(*)C9=O)(C(F)(F)F)C(F)(F)F)cc7C6=O)cc5)c(C(F)(F)F)c4)n3)cc2C(F)(F)F)cc1 (repeat unit)
*A* 1.95

*Q* Please answer likewise for *C1C(*)C2CC1C1C[CH]([Ge]([CH3])([CH3])[CH3])C21 (repeat unit)
*A* 620

*Q* Can you check *CC(O)C* (repeat unit) next?
*A* 0.019

*Q* Also need *c1cccc(N2C(=O)c3ccc(C(c4ccc5c(c4)C(=O)N(*)C5=O)(C(F)(F)F)C(F)(F)F)cc3C2=O)c1 (repeat unit) , thanks.
*A* 0.163

*Q* Ok, now *Oc1ccc(C(C)(C)c2ccc(OC(=O)c3cc(C(*)=O)cc(C(C)(C)C)c3)c(C)c2)cc1C (repeat unit)
*A* 0.4

*Q* Request: *Oc1c(C)cc(C(C)(C)c2cc(C)c(OC(=O)c3cccc(C(*)=O)c3)c(C)c2)cc1C (repeat unit)
*A* 0.472

*Q* What would you report for *C(=O)n1c(*)nc2cc3nc4c5ccc(*)c6c(*)ccc(c(=O)n4c3cc21)c65 (repeat unit) ?
*A* 0.0017

*Q* Would you mind doing *Oc1ccc(Cc2ccc(Oc3c(F)c(F)c(COC(C4CCCC(C(OCc5c(F)c(F)c(*)c(F)c5F)(C(F)(F)F)C(F)(F)F)C4)(C(F)(F)F)C(F)(F)F)c(F)c3F)cc2)cc1 (repeat unit) as well?
*A* 0.33
